Target: T1, GIP receptor (human (printed as hGIPR), UniProt P48546 22-466)
T1 sequence (looked up): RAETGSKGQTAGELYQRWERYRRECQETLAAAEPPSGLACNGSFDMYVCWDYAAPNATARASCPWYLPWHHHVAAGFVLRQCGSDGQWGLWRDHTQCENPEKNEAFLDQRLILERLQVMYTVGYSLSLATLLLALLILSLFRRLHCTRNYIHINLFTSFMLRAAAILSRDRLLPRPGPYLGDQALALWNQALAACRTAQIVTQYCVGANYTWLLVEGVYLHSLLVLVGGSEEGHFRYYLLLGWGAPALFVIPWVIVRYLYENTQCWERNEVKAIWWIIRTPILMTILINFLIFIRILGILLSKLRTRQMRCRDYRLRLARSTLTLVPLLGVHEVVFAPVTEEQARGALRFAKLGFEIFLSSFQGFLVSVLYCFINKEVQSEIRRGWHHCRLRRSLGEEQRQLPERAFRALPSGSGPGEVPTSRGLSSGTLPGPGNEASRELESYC
Test: cell-based or functional assay
Starred links: 1 amine or outer side, 2 acyl side, 3 side chain; linkers in the order of their positions; H or OH if unused. Non-standard residues stand in square brackets, D forms with d. Groups on a side chain read outwards from the residue. No end group written: not given here. *: point of attachment. C20 diacid = O=C(O)CCCCCCCCCCCCCCCCCCC(=O)*; γGlu = O=C(O)[C@H](CCC(=O)[*:2])N[*:1]; εLys = N[C@@H](CCCCN[*:1])C(=O)[*:2]; glu = not defined here; Aib = CC(C)(N)C(=O)O
binders and their reported EC50 hGIPR 100% hP (CreLuc)
Write the number in nM without appending the unit.

Answered cases to consult:
Binder: Y[Aib]EGTFTSDYSI[Aib]LEKQAQ[Aib]AFVQWLIKGGPSEGASLRHYYNWLTRQRY-NH2 (not fully specified (residue 28); also: TFA salt) [Compound 243]
Measured Quantity: EC50 hGIPR 100% hP (CreLuc)
Readout Units: nM
Readout Value: 2.97
--
Binder: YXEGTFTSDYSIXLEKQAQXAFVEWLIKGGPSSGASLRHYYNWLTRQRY (Aib at 2, 13, 20; D-Tyr at 49; K28 side chain carries C20DA-gGlu-gGlu-gGlu-gGlu-gGlu-gGlu-eLys; C-terminal amide) [Compound 214]
Measured Quantity: EC50 hGIPR 100% hP (CreLuc)
Readout Units: nM
Readout Value: 1.81
--
Binder: YXEGTFTSDYSIXLEKQAQXAFVQWLIKGGPSEGASLRHYYNWLTRXRY (Aib at 2, 13, 20; bHGln (beta-homo-L-glutamine) at 47; K28 side chain carries C20DA-gGlu-gGlu-gGlu-gGlu-gGlu-gGlu-eLys; C-terminal amide) [Compound 186]
Measured Quantity: EC50 hGIPR 100% hP (CreLuc)
Readout Units: nM
Readout Value: 0.77
--
Binder: YXEGTFTSDYSIXLEKQAQXAFVEWLIKGGPSSGASLRHYXNWLTRQRY (Aib at 2, 13, 20, 41; K28 side chain carries C20DA-gGlu-gGlu-gGlu-gGlu-gGlu-gGlu-eLys; C-terminal amide) [Compound 184]
Measured Quantity: EC50 hGIPR 100% hP (CreLuc)
Readout Units: nM
Readout Value: 1.37
--
Binder: Y[Aib]EGTFTSDYSI[Aib]LEKQAQ[Aib]EFVEWLIKGGPSSGASLRHYYNWLTRQRY-NH2 (not fully specified (residue 28); also: TFA salt) [Compound 198]
Measured Quantity: EC50 hGIPR 100% hP (CreLuc)
Readout Units: nM
Readout Value: 5.01

Recorded EC50 hGIPR 100% hP (CreLuc) for YXEGTFTSDYSIXLEKQAQXAFVEWLIKGGPSSGALLRHYYNWLTRQRY (Aib at 2, 13, 20; K28 side chain carries C20DA-gGlu-gGlu-gGlu-gGlu-gGlu-gGlu-eLys; C-terminal amide) [Compound 197] , please?
3.61

Recorded EC50 hGIPR 100% hP (CreLuc) for Y[Aib]EGTFTSDYSI[Aib]LEK(Ac)QAQ[Aib]AFVEWLIK([εLys-glu-γGlu-γGlu-γGlu-γGlu-γGlu-C20 diacid])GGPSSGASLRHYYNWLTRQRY-NH2 (reading uncertain; also: TFA salt) [Compound 192] , please?
1.95
